Test: amyloid nucleation score (Sup35N fusion, yeast selection) (log enrichment); library NNK1; higher = more nucleation; inactive = no reads after selection;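 note: zero at mode of non-aggregating sequences after 7 days selection at 30°C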

SUBSTANCE	amyloid nucleation score
SVISNVCSKCTVTRRDGP	3.17
GNAFFTYMINNYVSYFWHMP	6.42
MACVVRVLGVMVHLKMLVGL	-1.11
LNVYWRPCNN	0.717
YEGELTSKKFFAQVNSRVGG	-0.581
TRYMICSL	0.121
FLTQPFAFIVLCGSKYTSSD	-0.463
SIGPFKTYCTAAWP	-0.502
YLDCIYRGKIISIHTGSGIL	-0.449
NMVSLMVDSELTFVSLICLE	3.18
SDSFLSSYHSFMRDVWV	0.872
DLNDMAIRV	0.004
FLQLLGGLRSYKTRVCMWCV	-2.21
LISYRYFFCHRECVLVIGSN	0.327
RLMSNYHEGAAHKGGKHMPW	-0.495
IRRRRTNIWGWAIYRAISIY	0.345
KSDRIKLYNKCWELAVLMKK	-0.555
HQINRWRLLPRGGTFKDGHN	0.703
FFVGEDRACSRYSLTTTITG	0.554
MRFVIQVLYTGGTKKSSHLM	1.16
LYNPFHIRESMRSRPLVRWV	-0.1
SHPVIL	0.039
SCQSALLRILGSRVSFQARA	-0.192
CWMTGWTYPVY	3.85
RERSYRSGDYRCYSIMWSAL	-0.382
ALIYPILILYGV	1.52
RAWASVLGSFGIGVSCCGA	-0.85
PALWDLCVPKLIVANLIERS	-1.1
WSRYNSPCSKSMRYRSVSEA	-1.37
SFIFLILMSAWFPFMRVTFG	0.198
YCCSCASCGPGVNRSWGN	1.57
SWRNVLKSGASRNKVDRSSL	-0.22
KVFVSALCC	4.19
NSPGYDQVNAYVGFKRRTMS	0.128
CFFEILLSMISTMPRNVKLR	-0.28
TFYEMPFIFDLCYRWLTVTG	1.34
SSFIPF	0.1
QSVGMWSY	-0.256
WVCLNYYWGCVRRTTRVFCL	-0.198
SCDYGL	0.512
WFGLTALGDTFYGLYFCKKL	-0.848
NLNFAAPKGGV	-0.735
QMVYRYDER	-1.43
WHFSMFREWRSS	-0.649
VPIVGDLEKVMGCYSYWANK	-0.011
LRIDFGDATSVGRRRFMCTV	-0.199
MLVDIGRC	-1.31
CGSRVDGSCTAGTSIWVVDV	0.528
SWVSAVIHRYGV	1.31
ANLCSCSTTMA	0.236
RSWPSCNCVAKANMCFARSL	-0.521
RRSYDSLFVVVRRINTCSSP	-0.852
WNEADWHMCH	1.34
ACLISMMLVLCYI	1.67
TICNEINQFKAK	0.35
LVTGSCNQWHGKW	-0.062
KKSYCYPFPFFSYV	0.423
VRSFLPMYMF	-0.376
QSGAVTSSVRPQRVEVVRVV	-0.904
VEQLFGLAMRDLA	-0.448
TTPEAFNSLFAIRGGLLPQR	-0.415
FFYRPYVFMCLFYMVSRAGS	4.41
WADTIFCTSACNNVSGIRWG	-0.681
FSLCDSKSKWLLYCSGSFNL	2.69
SDYSLTCMGVYGEGKTRGNL	0.045
TLDADYPCNEQDTVWL	1.01
NYFEKR	-0.261
VGVSAVSTNSSVSKIFGTSW	0.746
FINHKHKQDQVI	1.48
QRFLHVESYESCLVSVSNLS	-0.752
